These data points were gathered from paper PMC8975796.

ASSAY DETAILS: ARIADME phase I pharmacokinetics/bioavailability study
Format: in vivo, human
RUN CONDITIONS: male, human, plasma, po, 300 mg, tmax, single 300 mg oral 14C-solution, fasted; median (range)
EXPERIMENTAL READOUT: tmax (h)
Number only, in h; omit the unit.

Query block: I'd like to know its tmax. The molecule in question is CC(O)c1cc(C(=O)N[C@@H](C)Cn2ccc(-c3ccc(C#N)c(Cl)c3)n2)[nH]n1 (stereo partly shown) [Darolutamide]
Result block: 1.58

###

Assay type: in vivo, human
RUN CONDITIONS: male, human, plasma, po, 600 mg
EXPERIMENTAL READOUT: half-life
Output should be the measured figure followed by the unit it is expressed in.

Query block: I'd like to know its half-life. The molecule in question is CC(O)c1cc(C(=O)N[C@@H](C)Cn2ccc(-c3ccc(C#N)c(Cl)c3)n2)[nH]n1 (stereo partly shown) [Darolutamide]
Result block: 11.6 h

###

Type: in vivo, human
RUN CONDITIONS: Day 7 (multiple doses) 600 mg BID oral with food; median (range)
Here the recorded tmax is given for each entry.

MOLECULE	tmax
C[C@@H](Cn1ccc(-c2ccc(C#N)c(Cl)c2)n1)NC(=O)c1cc([C@@H](C)O)[nH]n1 [(S,R)-darolutamide]	3.00 (0.967–4.00) h
CC(O)c1cc(C(=O)N[C@@H](C)Cn2ccc(-c3ccc(C#N)c(Cl)c3)n2)[nH]n1 (stereo partly shown) [Darolutamide]	3.98 (2.00–5.98) h
CC(=O)c1cc(C(=O)N[C@@H](C)Cn2ccc(-c3ccc(C#N)c(Cl)c3)n2)[nH]n1 [Keto-darolutamide, keto-darolutamide]	3.00 (1.48–5.97) h

Consider now this further molecule.
Query block: I'd like to know its tmax. The molecule in question is C[C@H](O)c1cc(C(=O)N[C@@H](C)Cn2ccc(-c3ccc(C#N)c(Cl)c3)n2)n[nH]1 [(S,S)-darolutamide]
Result block: 3.98 (0.00–6.02) h

###

ASSAY DETAILS: ARIADME phase I pharmacokinetics/bioavailability study
Type: in vivo, human
RUN CONDITIONS: male, human, plasma, po, 300 mg, Vd/F, single 300 mg oral tablet, fasted; geometric mean (CV%)
EXPERIMENTAL READOUT: Vd/F (L)
Number only, in L; omit the unit.

Query block: I'd like to know its Vd/F. The molecule in question is CC(O)c1cc(C(=O)N[C@@H](C)Cn2ccc(-c3ccc(C#N)c(Cl)c3)n2)[nH]n1 (stereo partly shown) [Darolutamide]
Result block: 514

###

ASSAY DETAILS: ARIADME phase I pharmacokinetics/bioavailability study
Assay type: in vivo, human
RUN CONDITIONS: male, human, plasma, iv, 100 µg
EXPERIMENTAL READOUT: clearance

Query block: I'd like to know its clearance. The compound in question is CC(O)c1cc(C(=O)N[C@@H](C)Cn2ccc(-c3ccc(C#N)c(Cl)c3)n2)[nH]n1 (stereo partly shown) [Darolutamide]
Result block: 116 mL/min

###

Format: in vivo, human
RUN CONDITIONS: male, human, plasma, po, 600 mg
EXPERIMENTAL READOUT: AUC(0-inf) (ng·h/mL)
Number only, in ng·h/mL; omit the unit.

Query block: I'd like to know its AUC(0-inf). The compound in question is CC(O)c1cc(C(=O)N[C@@H](C)Cn2ccc(-c3ccc(C#N)c(Cl)c3)n2)[nH]n1 (stereo partly shown) [Darolutamide]
Result block: 26200

###

ASSAY DETAILS: ARIADME phase I pharmacokinetics/bioavailability study
Type: in vivo, human
RUN CONDITIONS: male, human, plasma, po, 300 mg, F (absolute oral bioavailability), single 300 mg oral tablet, fasted; geometric mean (CV%)
EXPERIMENTAL READOUT: bioavailability (%)
Number only, in %; omit the unit.

Query block: I'd like to know its bioavailability. The compound in question is CC(O)c1cc(C(=O)N[C@@H](C)Cn2ccc(-c3ccc(C#N)c(Cl)c3)n2)[nH]n1 (stereo partly shown) [Darolutamide]
Result block: 29.9

###

ASSAY DETAILS: ARIADME phase I pharmacokinetics/bioavailability study
Assay type: in vivo, human
RUN CONDITIONS: male, human, plasma, po, 300 mg, AUC0–inf, single 300 mg oral 14C-solution, fasted; geometric mean (CV%)
EXPERIMENTAL READOUT: AUC(0-inf) (ng·h/mL)
Number only, in ng·h/mL; omit the unit.

Query block: I'd like to know its AUC(0-inf). The molecule in question is CC(O)c1cc(C(=O)N[C@@H](C)Cn2ccc(-c3ccc(C#N)c(Cl)c3)n2)[nH]n1 (stereo partly shown) [Darolutamide]
Result block: 45600

###

Assay type: in vivo, human
RUN CONDITIONS: male, human, plasma, po, 600 mg, median time to peak concentration, oral tablet, single dosing of 600 mg
EXPERIMENTAL READOUT: tmax

Query block: I'd like to know its tmax. The molecule in question is CC(O)c1cc(C(=O)N[C@@H](C)Cn2ccc(-c3ccc(C#N)c(Cl)c3)n2)[nH]n1 (stereo partly shown) [Darolutamide]
Result block: 4 to 6 h

###

Format: in vivo, human
RUN CONDITIONS: male, human, plasma, po, 600 mg
EXPERIMENTAL READOUT: tmax (h)
Number only, in h; omit the unit.

Query block: I'd like to know its tmax. The molecule in question is CC(O)c1cc(C(=O)N[C@@H](C)Cn2ccc(-c3ccc(C#N)c(Cl)c3)n2)[nH]n1 (stereo partly shown) [Darolutamide]
Result block: 4

###

Type: in vivo, human
RUN CONDITIONS: multiple (day 7) vs single (day 1) dosing, 600 mg BID
Here the recorded RAAUC, accumulation ratio based on AUC0–12 is given for each entry.
// response body must contain only the number

Below, 3 molecules whose answers are already recorded.
MOLECULE	REPORTED VALUE
CC(=O)c1cc(C(=O)N[C@@H](C)Cn2ccc(-c3ccc(C#N)c(Cl)c3)n2)[nH]n1 [Keto-darolutamide, keto-darolutamide]	2.2
CC(O)c1cc(C(=O)N[C@@H](C)Cn2ccc(-c3ccc(C#N)c(Cl)c3)n2)[nH]n1 (stereo partly shown) [Darolutamide]	2.1
C[C@@H](Cn1ccc(-c2ccc(C#N)c(Cl)c2)n1)NC(=O)c1cc([C@@H](C)O)[nH]n1 [(S,R)-darolutamide]	1.2

Consider now this further molecule.
Query block: I'd like to know its RAAUC, accumulation ratio based on AUC0–12. The molecule in question is C[C@H](O)c1cc(C(=O)N[C@@H](C)Cn2ccc(-c3ccc(C#N)c(Cl)c3)n2)n[nH]1 [(S,S)-darolutamide]
Result block: 2.3
